System: Enterobacter cloacae IID 977
Assay: In vitro antibacterial activity, MIC (standard strain)
Format: cell-based
Conditions: IID977, Enterobacter cloacae IID 977, 10^6 cells/ml
Where a name gives a salt, the structure may show the parent alone.
Task for the reader: assign each of the following molecules its reported MIC.
Give bare numbers, in µg/mL.

MOLECULE: CC1CN(c2c(F)cc3c(=O)c(C(=O)O)cn(C4CC4)c3c2F)CC(C)N1 (stereo not shown)
MEAS VALUE: 0.05

MOLECULE: CC1CN(c2c(F)cc3c(=O)c(C(=O)O)cn(C4CC4)c3c2Cl)CC(C)N1 (stereo not shown) [Example 6, hydrochloride]
MEAS VALUE: 0.2

Lab note: each molecule below needs its MIC filled in.
1. CC1CN(c2c(F)cc3c(=O)c(C(=O)O)cn(C4CC4)c3c2F)CCN1 (stereo not shown)
2. CC1CN(c2c(F)cc3c(=O)c(C(=O)O)cn(C4CC4)c3c2Cl)CCN1 (stereo not shown) [Example 5, hydrochloride]

[0.05, 0.05]
